Catalogue of EC50 readings, one per entry.
- measurementTarget: UniProt P41594
- Sequence (P41594 21-1180 isoform P41594-2): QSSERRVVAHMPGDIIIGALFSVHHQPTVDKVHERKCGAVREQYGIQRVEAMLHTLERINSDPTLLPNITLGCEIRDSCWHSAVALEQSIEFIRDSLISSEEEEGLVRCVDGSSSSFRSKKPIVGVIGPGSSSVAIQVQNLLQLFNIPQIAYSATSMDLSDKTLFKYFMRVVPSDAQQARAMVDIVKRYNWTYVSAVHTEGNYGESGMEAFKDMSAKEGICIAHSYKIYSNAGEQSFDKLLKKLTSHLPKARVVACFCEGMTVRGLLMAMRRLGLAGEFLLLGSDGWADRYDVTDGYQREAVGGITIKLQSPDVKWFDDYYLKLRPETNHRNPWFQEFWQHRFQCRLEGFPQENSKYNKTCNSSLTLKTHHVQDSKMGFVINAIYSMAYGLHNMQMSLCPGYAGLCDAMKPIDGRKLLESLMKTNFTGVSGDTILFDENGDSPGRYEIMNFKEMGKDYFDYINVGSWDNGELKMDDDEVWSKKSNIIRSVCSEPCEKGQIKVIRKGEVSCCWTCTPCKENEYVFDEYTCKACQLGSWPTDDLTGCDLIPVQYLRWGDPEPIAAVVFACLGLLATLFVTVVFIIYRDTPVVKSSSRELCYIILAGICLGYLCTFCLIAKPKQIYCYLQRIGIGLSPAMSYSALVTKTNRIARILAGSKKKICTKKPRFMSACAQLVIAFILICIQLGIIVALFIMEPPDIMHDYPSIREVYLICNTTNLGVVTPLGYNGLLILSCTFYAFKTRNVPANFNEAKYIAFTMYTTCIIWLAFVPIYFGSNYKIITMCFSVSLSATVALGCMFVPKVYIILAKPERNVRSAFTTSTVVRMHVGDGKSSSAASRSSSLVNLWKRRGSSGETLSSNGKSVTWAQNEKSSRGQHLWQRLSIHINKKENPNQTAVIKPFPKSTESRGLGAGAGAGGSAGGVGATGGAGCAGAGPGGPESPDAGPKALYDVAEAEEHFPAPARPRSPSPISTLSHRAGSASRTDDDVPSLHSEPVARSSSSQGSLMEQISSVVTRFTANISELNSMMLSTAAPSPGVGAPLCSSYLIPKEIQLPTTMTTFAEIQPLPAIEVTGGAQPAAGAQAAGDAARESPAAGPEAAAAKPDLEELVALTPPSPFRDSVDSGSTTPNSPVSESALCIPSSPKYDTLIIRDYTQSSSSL
- protocolNotes: mGluR5 FLIPR Assay
- Assay type: cell-based
- setupConditions: positive modulator activity; HEK293 (ZF) cells with human mGluR5A and rat GLAST; Ca++ response to ~EC10 glutamate

O=C1N[C@@H](c2cc(C#Cc3ccccc3Cl)ccn2)[C@H](c2ccc(F)cc2)O1 (single isomer, unassigned) | > 1000 nM

# lookup: EC50 of `O=C1N[C@H](c2cncc(C#Cc3cccc(F)n3)c2)[C@@H](c2ccc(F)cc2)O1`
< 100 nM

Please answer likewise for `O=C1N[C@H](c2cccc(C#Cc3ccccc3)c2)[C@H](c2cnccn2)O1`
> 1000 nM

Please answer likewise for O=C1N[C@H](c2cccc(C#Cc3cnccn3)n2)[C@@H](c2ccc(F)cc2)O1 (single isomer, unassigned)
100 to 1000 nM

Please answer likewise for `O=C1N[C@H](c2cc(C#Cc3ccccc3)ncc2F)[C@@H](c2cc(F)ccc2F)O1`
< 100 nM

Please answer likewise for Cc1ccc([C@@H]2OC(=O)N[C@H]2c2cccc(C#Cc3ccccc3)c2)cc1 (racemic) [Example 106]
< 100 nM

Please answer likewise for `O=C1N[C@H](c2cncc(C#Cc3ccc(Cl)c(Cl)c3)c2)[C@@H](c2cc(F)ccc2F)O1`
> 1000 nM

Please answer likewise for `O=C1N[C@H](c2cncc(C#Cc3ccc(F)cc3)c2)[C@@H](c2cc(F)ccc2F)O1`
< 100 nM

Please answer likewise for `O=C1N[C@H](c2cc(C#Cc3cccnc3)cnc2F)[C@@H](c2ccc(C(F)(F)F)cc2)O1`
< 100 nM
